Where these numbers come from: patent US11673901B2

Target: UniProt:Q06124
Sequence (Q06124 whole entry): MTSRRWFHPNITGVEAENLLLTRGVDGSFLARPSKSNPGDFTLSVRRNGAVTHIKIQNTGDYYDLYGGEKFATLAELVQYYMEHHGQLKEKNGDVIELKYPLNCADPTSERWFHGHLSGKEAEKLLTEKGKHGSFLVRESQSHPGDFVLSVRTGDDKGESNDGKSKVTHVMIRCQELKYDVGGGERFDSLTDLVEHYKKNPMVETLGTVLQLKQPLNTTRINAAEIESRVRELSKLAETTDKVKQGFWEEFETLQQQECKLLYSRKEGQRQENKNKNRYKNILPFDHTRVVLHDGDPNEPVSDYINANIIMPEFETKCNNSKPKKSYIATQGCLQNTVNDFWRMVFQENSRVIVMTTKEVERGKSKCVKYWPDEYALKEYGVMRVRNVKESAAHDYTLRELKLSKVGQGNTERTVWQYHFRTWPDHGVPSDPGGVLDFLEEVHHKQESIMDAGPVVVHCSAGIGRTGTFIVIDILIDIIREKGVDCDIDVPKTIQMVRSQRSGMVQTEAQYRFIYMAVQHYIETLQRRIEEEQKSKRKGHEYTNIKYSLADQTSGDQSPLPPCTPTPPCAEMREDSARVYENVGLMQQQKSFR
Test: SHP2 allosteric inhibition assay (DiFMUP prompt fluorescence)
Type: biochemical
Settings: 0.2 nM SHP2 activated with 0.5 μM Activating Peptide 1 or 2; substrate DiFMUP; Table 2, class symbols
Description: Without wishing to be bound by theory, SHP2 is allosterically activated through binding of bis-tyrosyl-phosphorylated peptides to its Src Homology 2 (SH2) domains. […] The catalytic activity of SHP2 was monitored using the surrogate substrate DiFMUP in a prompt fluorescence assay format. […]
Reported IC50 values follow for various compounds
measured attribute: IC50

* C[C@@H]1OCC2(CCN(c3ncc(-c4cccc(Cl)c4Cl)c4nccn34)CC2)[C@@H]1N [Compound 56] | ≤ 0.05 µM
* Nc1nccc(Sc2cnc(N3CC[C@H](N)C3)n3ccnc23)c1Cl [Compound 21] | > 0.5 µM
* C[C@@H]1OCC2(CCN(c3ncc(Sc4cccc(C(=O)N(C)C)c4Cl)c4nccn34)CC2)[C@@H]1N [Compound 14] | 0.05 to 0.5 µM
* Nc1nccc(Sc2cnc(N3CCC4(CC3)CNC4)n3ccnc23)c1Cl [Compound 20] | 0.05 to 0.5 µM
* Cc1nc(N2CCC3(CC2)CO[C@@H](C)[C@H]3N)n2ccnc2c1-c1cc2[nH]ncc2cc1Cl [Compound 38] | ≤ 0.05 µM
* Cc1nc(N2CCC3(CC2)CC(N2CC(C#N)C2)C[C@H]3N)n2ccnc2c1-c1cccc(Cl)c1Cl (stereo partly drawn) [Compound 62] | ≤ 0.05 µM
